experiment: Pharmacokinetics in BT-474 tumor-bearing mice; assay type: in vivo; details: female, athymic, mouse, blood, po, 30 mg/kg, QD, day 22, read-out: Cmax 0.5 h
ASSAY_READOUT: Cmax (ng/mL)

>>> value_measured("COCC(=O)NC/C=C/c1ccc2ncnc(Nc3ccc(Oc4ccc(C)nc4)c(C)c3)c2c1 [Test Compound]")
1800

----------
experiment: Pharmacokinetics in SK-OV-3 tumor-bearing mice; format: in vivo; settings: female, athymic, mouse, blood, po, 25 mg/kg, PO, BID; day 18; read-out: AUC0-4 h
ASSAY_READOUT: AUC(0-t) (ng·h/mL)

>>> value_measured("COCC(=O)NC/C=C/c1ccc2ncnc(Nc3ccc(Oc4ccc(C)nc4)c(C)c3)c2c1 [Test Compound]")
1560
